For each record, write down the corresponding MIC.
test system: Escherichia coli; assay: Antimicrobial activity against wild-type Escherichia coli Eco523 by broth microdilution/CLSI method; type: functional; details: Escherichia coli, Eco523; read-out: MIC
Give bare numbers, in µg/mL.

- COc1cc(OC)nc(-c2nc(N3CC[C@@H](NC(=O)c4[nH]c(C)c(Cl)c4Cl)[C@@H](OC)C3)sc2C(=O)O)n1: 32
- CO[C@H]1CN(c2nc(-c3ccccn3)c(C(=O)O)s2)CC[C@H]1NC(=O)c1[nH]c(C)c(Cl)c1Cl: 8
- CO[C@H]1CN(c2nc(-c3cn(C)cn3)c(C(=O)O)s2)CC[C@H]1NC(=O)c1[nH]c(C)c(Cl)c1Cl: 16
- CO[C@H]1CN(c2nc(-c3ccncn3)c(C(=O)O)s2)CC[C@H]1NC(=O)c1[nH]c(C)c(Cl)c1Cl: 16

For each of the molecules below, state MIC.
1. COCn1ccnc1-c1nc(N2CC[C@@H](NC(=O)c3[nH]c(C)c(Cl)c3Cl)[C@@H](OC)C2)sc1C(=O)O
2. CO[C@H]1CN(c2nc3cccc(C(=O)O)c3s2)CC[C@H]1NC(=O)c1[nH]c(C)c(Cl)c1Cl
3. CO[C@H]1CN(c2nc(-c3cncc(OCCN(C)C)n3)c(C(=O)O)s2)CC[C@H]1NC(=O)c1[nH]c(C)c(Cl)c1Cl

Found:
16
8
60

Batch request: MIC per item, same order as input.
1. COCC(COC)(COC)NC(=O)c1nc(N2CC[C@@H](NC(=O)c3[nH]c(C)c(Cl)c3Cl)[C@@H](OC)C2)sc1C(=O)O
2. CO[C@H]1CN(c2nc(-c3nccn3C)c(C(=O)O)s2)CC[C@H]1NC(=O)c1[nH]c(C)c(Cl)c1Cl
3. CO[C@H]1CN(c2nc(C(=O)NC3COC(C)(C)OC3)c(C(=O)O)s2)CC[C@H]1NC(=O)c1[nH]c(C)c(Cl)c1Cl
4. CO[C@H]1CN(c2nc(-c3ncccn3)c(C(=O)O)s2)CC[C@H]1NC(=O)c1[nH]c(C)c(Cl)c1Cl
5. CO[C@H]1CN(c2nc(C(=O)NCCN3CCCC3=O)c(C(=O)O)s2)CC[C@H]1NC(=O)c1[nH]c(C)c(Cl)c1Cl

Found:
1: 29; 2: 8; 3: 14; 4: 23; 5: 64

Could you report MIC for every entry in the following list?
1. CO[C@H]1CN(c2nc(-c3ccn[nH]3)c(C(=O)O)s2)CC[C@H]1NC(=O)c1[nH]c(C)c(Cl)c1Cl
2. CO[C@H]1CN(c2nc(-c3ncnn3C)c(C(=O)O)s2)CC[C@H]1NC(=O)c1[nH]c(C)c(Cl)c1Cl
3. CO[C@H]1CN(c2nc(C(C)=O)c(C(=O)O)s2)CC[C@H]1NC(=O)c1[nH]c(C)c(Cl)c1Cl

Found:
1: 64; 2: 32; 3: 30
